Exercise: for every item that follows, state its recorded fold difference in affinity vs original.
Target: binding partner of C5A (XPA23)
Experiment: Biacore K-off
Use fold as the unit, but write only the number.

Record request: fold difference in affinity vs original value, item C5A (XPA23) VL S93E (antibody, V domains shown) VH: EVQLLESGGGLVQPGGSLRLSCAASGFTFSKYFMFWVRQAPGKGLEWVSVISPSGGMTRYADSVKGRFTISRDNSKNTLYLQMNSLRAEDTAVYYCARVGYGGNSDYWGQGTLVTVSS VL: DIQMTQSPSSVSASVGDRLTIICRASQDINRWLAWYQQTPGNAPKLLIHSATSLQSGVPSRFSGSGSGTDFTLTINSLQPEDFATYYCQQADEFPLTFGGGTKVEIK
3.71

Same thing, different binder: C5A (XPA23) VL D28S (antibody, V domains shown) VH: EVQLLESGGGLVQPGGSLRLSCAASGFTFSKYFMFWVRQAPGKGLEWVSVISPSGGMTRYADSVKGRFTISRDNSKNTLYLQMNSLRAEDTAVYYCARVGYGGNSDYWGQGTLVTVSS VL: DIQMTQSPSSVSASVGDRLTIICRASQSINRWLAWYQQTPGNAPKLLIHSATSLQSGVPSRFSGSGSGTDFTLTINSLQPEDFATYYCQQADSFPLTFGGGTKVEIK
5.25

Same thing, different binder: C5A (XPA23) VL R31S (antibody, V domains shown) VH: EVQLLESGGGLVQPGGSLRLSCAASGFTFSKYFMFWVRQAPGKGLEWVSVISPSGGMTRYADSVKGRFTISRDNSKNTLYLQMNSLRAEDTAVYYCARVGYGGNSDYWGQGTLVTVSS VL: DIQMTQSPSSVSASVGDRLTIICRASQDINSWLAWYQQTPGNAPKLLIHSATSLQSGVPSRFSGSGSGTDFTLTINSLQPEDFATYYCQQADSFPLTFGGGTKVEIK
0.44

Same thing, different binder: C5A (XPA23) VL N30T (antibody, V domains shown) VH: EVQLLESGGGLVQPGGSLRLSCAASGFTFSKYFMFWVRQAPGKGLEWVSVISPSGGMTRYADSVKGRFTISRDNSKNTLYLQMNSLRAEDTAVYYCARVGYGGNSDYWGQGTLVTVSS VL: DIQMTQSPSSVSASVGDRLTIICRASQDITRWLAWYQQTPGNAPKLLIHSATSLQSGVPSRFSGSGSGTDFTLTINSLQPEDFATYYCQQADSFPLTFGGGTKVEIK
0.97

Same thing, different binder: C5A (XPA23) VL S93F (antibody, V domains shown) VH: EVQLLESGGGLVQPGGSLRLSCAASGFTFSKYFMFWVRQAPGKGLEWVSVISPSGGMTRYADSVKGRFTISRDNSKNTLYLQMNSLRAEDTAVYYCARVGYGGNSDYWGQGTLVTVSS VL: DIQMTQSPSSVSASVGDRLTIICRASQDINRWLAWYQQTPGNAPKLLIHSATSLQSGVPSRFSGSGSGTDFTLTINSLQPEDFATYYCQQADFFPLTFGGGTKVEIK
1.32

Same thing, different binder: C5A (XPA23) VH Y32H (antibody, V domains shown) VH: EVQLLESGGGLVQPGGSLRLSCAASGFTFSKHFMFWVRQAPGKGLEWVSVISPSGGMTRYADSVKGRFTISRDNSKNTLYLQMNSLRAEDTAVYYCARVGYGGNSDYWGQGTLVTVSS VL: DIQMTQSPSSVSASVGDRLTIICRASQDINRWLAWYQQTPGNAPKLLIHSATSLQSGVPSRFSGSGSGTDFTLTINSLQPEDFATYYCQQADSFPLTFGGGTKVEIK
0.62

Same thing, different binder: C5A (XPA23) VL A91S (antibody, V domains shown) VH: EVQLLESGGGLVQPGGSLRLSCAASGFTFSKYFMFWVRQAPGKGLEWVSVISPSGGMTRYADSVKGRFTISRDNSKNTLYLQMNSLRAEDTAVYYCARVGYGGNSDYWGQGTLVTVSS VL: DIQMTQSPSSVSASVGDRLTIICRASQDINRWLAWYQQTPGNAPKLLIHSATSLQSGVPSRFSGSGSGTDFTLTINSLQPEDFATYYCQQSDSFPLTFGGGTKVEIK
0.9

Same thing, different binder: C5A (XPA23) VL N30H (antibody, V domains shown) VH: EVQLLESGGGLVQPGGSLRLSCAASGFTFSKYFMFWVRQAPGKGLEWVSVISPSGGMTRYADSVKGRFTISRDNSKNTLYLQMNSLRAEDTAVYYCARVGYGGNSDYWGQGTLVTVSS VL: DIQMTQSPSSVSASVGDRLTIICRASQDIHRWLAWYQQTPGNAPKLLIHSATSLQSGVPSRFSGSGSGTDFTLTINSLQPEDFATYYCQQADSFPLTFGGGTKVEIK
1

Same thing, different binder: C5A (XPA23) VL P95F (antibody, V domains shown) VH: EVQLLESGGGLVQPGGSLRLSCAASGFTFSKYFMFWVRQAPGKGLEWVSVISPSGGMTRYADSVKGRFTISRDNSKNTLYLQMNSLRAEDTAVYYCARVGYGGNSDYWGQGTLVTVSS VL: DIQMTQSPSSVSASVGDRLTIICRASQDINRWLAWYQQTPGNAPKLLIHSATSLQSGVPSRFSGSGSGTDFTLTINSLQPEDFATYYCQQADSFFLTFGGGTKVEIK
0.98

Same thing, different binder: C5A (XPA23) VL S50G (antibody, V domains shown) VH: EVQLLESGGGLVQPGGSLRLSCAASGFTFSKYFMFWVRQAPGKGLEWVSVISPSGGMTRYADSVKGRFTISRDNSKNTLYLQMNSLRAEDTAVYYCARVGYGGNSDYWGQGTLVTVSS VL: DIQMTQSPSSVSASVGDRLTIICRASQDINRWLAWYQQTPGNAPKLLIHGATSLQSGVPSRFSGSGSGTDFTLTINSLQPEDFATYYCQQADSFPLTFGGGTKVEIK
0.14
